Each recorded value in this set is attributed to paper PMC8259857.

# Tested on: susceptible H37Rv MTB strain (ATCC 25177)
# EXPERIMENTAL_PROTOCOL: Resazurin Microplate Assay (REMA), whole-cell anti-tubercular activity against H37Rv
# Type: cell-based, Mycobacterium tuberculosis
# ASSAY_CONTEXT: Mycobacterium tuberculosis, read-out: MIC H37Rv
ATTRIBUTE_MEASURED: MIC (µg/mL)
Write the value in µg/mL as a bare number.

Some entries whose results are on file:
CCOC(=O)c1c(C(=O)OCC)c2ccccn2c1C(=O)c1ccc(F)cc1 [Compound 4a]; 8
CCOC(=O)c1c(C)c(C(=O)c2ccc([N+](=O)[O-])cc2)n2ccccc12 [Compound 3d]; 8
CCOC(=O)c1cc(C(=O)c2ccc(Cl)cc2)n2ccccc12 [Compound 2b]; 8

q: Return the recorded MIC value; entry: CCOC(=O)c1c(C)c(C(=O)c2ccc(F)cc2)n2ccccc12 [Compound 3a]
a: 4

q: Return the recorded MIC value; entry: CCOC(=O)c1c(C(=O)OCC)c2ccccn2c1C(=O)c1ccc([N+](=O)[O-])cc1 [Compound 4c]
a: 32

q: Return the recorded MIC value; entry: CCOC(=O)c1cc(C(=O)c2ccc([N+](=O)[O-])cc2)n2ccccc12 [Compound 2d]
a: 8
